Task for the reader: assign each of the following compounds its reported inhibition.
target: Peptidyl-prolyl cis-trans isomerase A (Homo sapiens, UniProt P62937); test: % inhibition of competitive binding, at 500 uM, against human Peptidyl-prolyl isomerase
Sequence (P62937 whole entry, looked up): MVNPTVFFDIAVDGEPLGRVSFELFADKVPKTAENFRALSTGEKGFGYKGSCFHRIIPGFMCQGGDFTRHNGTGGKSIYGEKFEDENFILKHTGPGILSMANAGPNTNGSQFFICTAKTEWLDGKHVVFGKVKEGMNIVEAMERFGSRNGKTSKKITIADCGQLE
Residues, ends and D or L forms follow the SMILES beside them. *: point of attachment. NHCHPh2 = c1ccc(C(N*)c2ccccc2)cc1
Numbers only, in %.

Each compound below has a recorded value; state its inhibition.
1. CC[C@H](C)[C@H](NC(=O)[C@@H]1CCCN1C(=O)CNC(=O)[C@H](C)NC(=O)[C@H](Cc1c[nH]cn1)NC(=O)[C@@H](NC(C)=O)C(C)C)C(=O)NC(c1ccccc1)c1ccccc1 (Ac-VHAGPI-NHCHPh2)
2. CC(=O)N[C@H](C(=O)N[C@@H](Cc1c[nH]cn1)C(=O)N[C@@H](C)C(=O)NCC(=O)N1CCC[C@H]1C(=O)N[C@H](C(=O)N[C@H](C)C(N)=O)C(C)C)C(C)C

1. 38
2. 31
